biological target: rat type P2X2/3 receptor (Rattus norvegicus, UniProt P49653+P49654); assay: P2X2/3 receptor inhibitory activity ([14C]-guanidine uptake stimulated by αβ-me ATP in CHO cells); conditions: CHO cell expressing rat type P2X2/3 receptor; 4 μM αβ-me ATP; [14C]-guanidine; 15 minutes room temperature; read-out: IC50 (concentration which inhibits 50% of the function of P2X2/3 receptor)
Sequence (P49653 whole entry): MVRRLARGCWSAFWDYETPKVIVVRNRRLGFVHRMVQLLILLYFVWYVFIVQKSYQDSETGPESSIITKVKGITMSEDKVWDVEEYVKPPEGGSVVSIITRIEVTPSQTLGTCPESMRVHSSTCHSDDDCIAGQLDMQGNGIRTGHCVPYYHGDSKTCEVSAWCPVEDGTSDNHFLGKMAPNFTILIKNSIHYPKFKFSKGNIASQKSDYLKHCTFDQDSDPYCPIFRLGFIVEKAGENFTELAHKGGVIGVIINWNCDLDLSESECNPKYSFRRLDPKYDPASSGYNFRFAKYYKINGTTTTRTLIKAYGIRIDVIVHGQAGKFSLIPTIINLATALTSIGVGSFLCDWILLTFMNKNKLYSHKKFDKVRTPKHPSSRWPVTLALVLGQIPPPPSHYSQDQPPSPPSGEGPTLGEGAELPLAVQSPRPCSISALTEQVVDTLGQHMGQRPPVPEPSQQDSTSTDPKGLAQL
Sequence (P49654 whole entry): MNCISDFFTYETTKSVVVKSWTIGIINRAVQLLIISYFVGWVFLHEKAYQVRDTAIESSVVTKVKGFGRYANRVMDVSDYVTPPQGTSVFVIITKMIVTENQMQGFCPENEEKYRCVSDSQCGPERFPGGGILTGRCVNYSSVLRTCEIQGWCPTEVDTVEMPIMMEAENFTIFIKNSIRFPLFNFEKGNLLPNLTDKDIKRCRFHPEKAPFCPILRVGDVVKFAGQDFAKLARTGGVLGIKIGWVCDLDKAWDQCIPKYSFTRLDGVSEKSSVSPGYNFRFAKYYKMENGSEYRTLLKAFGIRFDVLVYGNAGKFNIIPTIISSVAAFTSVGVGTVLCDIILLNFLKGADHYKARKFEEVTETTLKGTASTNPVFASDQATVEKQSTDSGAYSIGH
pIC50: −log10 of the molar value.
experimentalEndpoint: pIC50

Provide the documented pIC50 with rat type P2X2/3 receptor (Rattus norvegicus, UniProt P49653+P49654) as the system for NCCC(O)(P(=O)(O)O)P(=O)(O)O [pamidronate]
< 3.52

Provide the documented pIC50 with rat type P2X2/3 receptor (Rattus norvegicus, UniProt P49653+P49654) as the system for Cc1ccc(C(=O)Nc2ccc(S(=O)(=O)O)c3cc(S(=O)(=O)O)cc(S(=O)(=O)O)c23)cc1NC(=O)c1cccc(NC(=O)Nc2cccc(C(=O)Nc3cc(C(=O)Nc4ccc(S(=O)(=O)O)c5cc(S(=O)(=O)O)cc(S(=O)(=O)O)c45)ccc3C)c2)c1 [suramin]
3.71

Provide the documented pIC50 with rat type P2X2/3 receptor (Rattus norvegicus, UniProt P49653+P49654) as the system for O=P(O)(O)C(O)(Cn1ccnc1)P(=O)(O)O [zoledronate]
< 3.52

Pending molecule:
Provide the documented pIC50 with rat type P2X2/3 receptor (Rattus norvegicus, UniProt P49653+P49654) as the system for O=P(O)(O)C(Cl)(Cl)P(=O)(O)O [clodronate]
< 3.52
